pEC50 values for the compounds below.
Test system: Plasmodium falciparum
method: Antimalarial activity against chloroquine-resistant, pyrimethamine-resistant Plasmodium falciparum K1 in human red cells
Type: functional
condition.info: read-out: ED50 (the source's name)
Remember, pEC50 is on a log scale: it is -log10 of the molar concentration.

For orientation, consider the following solved cases.
>>> value_reported("Cn1cnc(S(=O)(=O)N(CC(=O)OC(C)(C)C)C2Cc3cc(C#N)ccc3N(Cc3cncn3C)C2=O)c1 (stereo not drawn)")
7.52
>>> value_reported("Cn1cnc(S(=O)(=O)NC2Cc3cc(Br)ccc3N(Cc3cncn3C)C2=O)c1 (stereo not drawn)")
5.52

Q. Tell me its pEC50 given Cn1cncc1CN1C(=O)C(NS(=O)(=O)c2ccccn2)Cc2cc(Br)ccc21 (stereo not drawn) as the entry.
A. 5.30

Q. Using known records, supply pEC50 for Cc1c(S(=O)(=O)N(CC(=O)NC(C)(C)C)C2Cc3cc(C#N)ccc3N(Cc3cncn3C)C2=O)ncn1C (stereo not drawn)
A. 5.30

Q. For the compound Cn1cnc(S(=O)(=O)N(Cc2ccc(C(F)(F)F)o2)C2Cc3cc(C#N)ccc3N(Cc3cncn3C)C2=O)c1 (stereo not drawn) , give its reported pEC50.
A. 6.49

Q. Provide measured pEC50 value, entry: Cn1cnc(S(=O)(=O)N(Cc2ccc(C#N)cc2)C2Cc3cc(C#N)ccc3N(Cc3cncn3C)C2=O)c1 (stereo not drawn)
A. 5.68

Q. Please list pEC50 recorded for the compound C=C(C)CN(C1Cc2cc(C#N)ccc2N(Cc2cncn2C)C1=O)S(=O)(=O)c1cn(C)cn1 (stereo not drawn)
A. 5.70

Q. Give me measured pEC50, please, for this compound: Cn1cncc1CN1C(=O)C(N(Cc2ccc(S(C)(=O)=O)cc2)S(=O)(=O)c2ccccn2)Cc2cc(C#N)ccc21 (stereo not drawn)
A. 6.56
